Numbers sourced from patent US20210230287A1.

system-under-test: T1, OX40 (human, UniProt P43489 29-216, limits assumed)
T1 sequence (looked up): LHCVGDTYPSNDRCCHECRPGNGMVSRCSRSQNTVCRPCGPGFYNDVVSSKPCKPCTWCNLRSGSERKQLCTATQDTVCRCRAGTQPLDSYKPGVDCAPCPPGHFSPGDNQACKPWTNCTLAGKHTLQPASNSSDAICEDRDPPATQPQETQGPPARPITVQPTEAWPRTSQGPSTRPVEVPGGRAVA
assay-details: ELISA on plate-coated antigen, HRP goat anti-human IgG Fc, OD450-OD540; antibody concentration not given
experimental-readout: binding result

binder="2.27.16-u1-1-hIgG4L (antibody, V domains shown) VH: QEQLQESGPGLVKPSQTLSLTCTVSGGSINSQGYYWSWIRQHPGKGLEWIGYIYDSGSAYYNPSLERRVAISLDTSKNQFSLNLNSVTVADTAVYYCARIVAAGRIDPWGQGTLVTVSS VL: SYVLTQPPSVSVAPGQTARMTCGGDNIGIKIVHWYQQKAGQAPVLVVYDDNDRPSGIPDRFSGSNSGNTATLTISRVAAGDEADYYCQVWDRRSDHVVFGGGTKLTVL" experimental_readout="binding result" observed_measurement="no binding"
binder="2.19.8-u1-3-hIgG1L (antibody, V domains shown, Fully human antibody) VH: QVQLVESGGGLVKPGGSLRLSCAASGFTFSDYFMSWIRQAPGKGLEWVSYISNAGSSKYYADSVKGRFTISRDNAKNSLYLQMNSLRAEDTAVYYCVRDPYSGSYSGWFDPWGQGTLVTVSS VL: SYDLTQPPSVSVSPGQTASITCSGDDLGDKYTSWYQQKPGQSPVLVVYQDHKRPSGIPERFSGSNSGNTATLTISGTQAMDEADYYCQAWDKGIVVFGGGTKLTVL" experimental_readout="binding result" observed_measurement="no binding"
binder="2.19.8-u1-3-hIgG4L (antibody, V domains shown) VH: QVQLVESGGGLVKPGGSLRLSCAASGFTFSDYFMSWIRQAPGKGLEWVSYISNAGSSKYYADSVKGRFTISRDNAKNSLYLQMNSLRAEDTAVYYCVRDPYSGSYSGWFDPWGQGTLVTVSS VL: SYDLTQPPSVSVSPGQTASITCSGDDLGDKYTSWYQQKPGQSPVLVVYQDHKRPSGIPERFSGSNSGNTATLTISGTQAMDEADYYCQAWDKGIVVFGGGTKLTVL" experimental_readout="binding result" observed_measurement="no binding"
